ASSAY: Tmax in ICR mouse at 100 mg/kg, sc measured upto 24 hrs by LC-MS analysis
Format: ADME, organism-based
PARTICULARS: in vivo
RECORDED_METRIC: Tmax (min)
Report the figure in min without appending any unit label.

Return value of Tmax for input `CNc1cc(F)cc2c(O)c(C(=O)Nc3ccc(C(=O)O)cc3)c(=O)[nH]c12` , no commentary. 15

----------
Test system: Enterococcus faecium
ASSAY: Antibacterial activity against Enterococcus faecium ATCC 35667 by CLSI method
Format: functional
RECORDED_METRIC: MIC (µg/mL)
Field format: number, assumed µg/mL, no unit text.

Answer with MIC of `CNc1cc(F)cc2c(O)c(C(=O)Nc3ccc(C(=O)O)cc3CN3CCCCC3)c(=O)[nH]c12.O=C(O)C(F)(F)F` measured for Enterococcus faecium. 1

Answer with MIC of `CNc1cc(F)cc2cc(C(=O)Nc3ccc(C(=O)O)cc3CN3CCCCC3)c(=O)[nH]c12` measured for Enterococcus faecium. 0.03

Give MIC; test system Enterococcus faecium; molecule `CN(C)c1cc(NC(=O)CNC(C)(C)C)c(O)c2c1C[C@H]1C[C@H]3[C@H](N(C)C)C(O)=C(C(N)=O)C(=O)[C@@]3(O)C(O)=C1C2=O` 0.06

Tell me its MIC on Enterococcus faecium: `CNc1cc(F)cc2c(O)c(C(=O)Nc3ccc(C(=O)O)cc3)c(=O)[nH]c12` 0.008

State, for Enterococcus faecium, measured MIC of the molecule listed here: `CNc1cc(F)cc2cc(C(=O)Nc3ccc(C(=O)O)cc3)c(=O)[nH]c12` 0.03

Provide the reported MIC (system: Enterococcus faecium) for `CNc1cc(F)cc2cc(C(=O)Nc3ccc(C(=O)O)cc3CN(CCO)C3CCCCC3)c(=O)[nH]c12.Cl` 0.015

Report MIC from Enterococcus faecium testing of `CNc1cc(F)cc2c(O)c(C(=O)Nc3ccc(C(=O)NS(=O)(=O)N(C)C)cc3)c(=O)[nH]c12` 0.03

Give MIC only, for `CCCCCN(CCCCC)Cc1cc(C(=O)O)ccc1NC(=O)c1cc2cc(F)cc(NC)c2[nH]c1=O` , using Enterococcus faecium data. 0.06

Report measured MIC on Enterococcus faecium; entry: `CNc1cc(F)cc2cc(C(=O)Nc3ccc(C(=O)NS(=O)(=O)N(C)C)cc3)c(=O)[nH]c12` 0.06

----------
Test system: Streptococcus pneumoniae
ASSAY: Antibacterial activity against genotype penicillin-resistant Streptococcus pneumoniae by CLSI method
Assay type: functional
RECORDED_METRIC: MIC90 (µg/mL)
Please give a number only; it is taken to be in µg/mL.

Note down MIC90 recorded for `CNc1cc(F)cc2c(O)c(C(=O)Nc3ccc(C(=O)O)cc3)c(=O)[nH]c12` 0.06

In one line, give reported MIC90 of the entry `CO/N=C(\C(=O)N[C@@H]1C(=O)N2C(C(=O)O)=C(CSc3nc(=O)c(O)nn3C)CS[C@H]12)c1csc(N)n1` . 4

Note MIC90 for the compound shown: `C[C@@H](O)[C@H]1C(=O)N2C(C(=O)O)=C(S[C@@H]3CN[C@H](C(=O)N(C)C)C3)[C@H](C)[C@H]12` 1

Give me measured MIC90, please, for this compound: `CN[C@H](CC(C)C)C(=O)N[C@H]1C(=O)N[C@@H](CC(N)=O)C(=O)N[C@H]2C(=O)N[C@H]3C(=O)N[C@H](C(=O)N[C@H](C(=O)O)c4cc(O)cc(O)c4-c4cc3ccc4O)[C@H](O)c3ccc(c(Cl)c3)Oc3cc2cc(c3O[C@@H]2O[C@H](CO)[C@@H](O)[C@H](O)[C@H]2O[C@H]2C[C@](C)(N)[C@H](O)[C@H](C)O2)Oc2ccc(cc2Cl)[C@H]1O` 0.5

Check the records and state MIC90 for `C[C@H]1COc2c(N3CCN(C)CC3)c(F)cc3c(=O)c(C(=O)O)cn1c23.C[C@H]1COc2c(N3CCN(C)CC3)c(F)cc3c(=O)c(C(=O)O)cn1c23.O` 2

Consider the compound `CC1(C)S[C@@H]2[C@H](NC(=O)Cc3ccccc3)C(=O)N2[C@H]1C(=O)O` . State its measured MIC90. 4

----------
Record form. Attribute: MIC50. Fill in for each entry.
System: Streptococcus pneumoniae
ASSAY: Antibacterial activity against genotype penicillin-resistant Streptococcus pneumoniae by CLSI method
Format: functional

Report MIC50, nothing else, for this molecule: `C[C@H]1COc2c(N3CCN(C)CC3)c(F)cc3c(=O)c(C(=O)O)cn1c23.C[C@H]1COc2c(N3CCN(C)CC3)c(F)cc3c(=O)c(C(=O)O)cn1c23.O` 2 µg/mL

Return the recorded MIC50 value; entry: `CN[C@H](CC(C)C)C(=O)N[C@H]1C(=O)N[C@@H](CC(N)=O)C(=O)N[C@H]2C(=O)N[C@H]3C(=O)N[C@H](C(=O)N[C@H](C(=O)O)c4cc(O)cc(O)c4-c4cc3ccc4O)[C@H](O)c3ccc(c(Cl)c3)Oc3cc2cc(c3O[C@@H]2O[C@H](CO)[C@@H](O)[C@H](O)[C@H]2O[C@H]2C[C@](C)(N)[C@H](O)[C@H](C)O2)Oc2ccc(cc2Cl)[C@H]1O` 0.25 µg/mL

Given the molecule `CNc1cc(F)cc2c(O)c(C(=O)Nc3ccc(C(=O)O)cc3)c(=O)[nH]c12` , write its reported MIC50. 0.03 µg/mL

Name the recorded MIC50 of the item `CC[C@H]1OC(=O)[C@H](C)[C@@H](O[C@H]2C[C@@](C)(OC)[C@@H](O)[C@H](C)O2)[C@H](C)[C@@H](O[C@@H]2O[C@H](C)C[C@H](N(C)C)[C@H]2O)[C@](C)(O)C[C@@H](C)CN(C)[C@H](C)[C@@H](O)[C@]1(C)O` in your answer. > 128 µg/mL

----------
System: Escherichia coli
ASSAY: Antibacterial activity against Escherichia coli ATCC 25922 in presence of PAbetaN by CLSI method
Format: functional
RECORDED_METRIC: log10 MIC (log10 of the value in µg/mL)
Please be aware that the numbers have been log10-transformed from MIC in µg/mL.

Dear colleague, please send me the reported log10 MIC for `CNc1cc(F)cc2cc(C(=O)Nc3ccc(C(=O)O)cc3CNCCO)c(=O)[nH]c12.Cl` when you can. 0.30

Give the value of log10 MIC reported for the following: `CNc1cc(F)cc2cc(C(=O)Nc3ccc(CO)cc3CN(C)C3CCCCC3)c(=O)[nH]c12` -1.22

Give reported log10 MIC value for `CNc1cc(F)cc2cc(C(=O)Nc3ccc(C(=O)O)cc3)c(=O)[nH]c12` -1.82

Entry `CNc1cc(F)cc2cc(C(=O)Nc3ccc(C(=O)O)c(O)c3)c(=O)[nH]c12` needs its log10 MIC filled in; supply it. 0.00

Answer with reported log10 MIC of `CNc1cc(F)cc2cc(C(=O)Nc3ccc(C(=O)N(C)CCN4CCOCC4)cc3)c(=O)[nH]c12` -0.92

Dear colleague, please send me the reported log10 MIC for `CNc1cc(F)cc2c(N[C@H]3C[C@@H](N)C3)c(C(=O)Nc3ccc(C(=O)O)cc3)c(=O)[nH]c12.O=CO` when you can. 0.00

Name the recorded log10 MIC of the compound listed here: `CNc1cc(F)cc2c(NCC3CCNCC3)c(C(=O)Nc3ccc(C(=O)O)cc3)c(=O)[nH]c12.O=CO` -0.30

Find the measured log10 MIC of `CNc1cc(F)cc2c(NCCN)c(C(=O)Nc3ccc(C(=O)O)cc3)c(=O)[nH]c12.O=CO` and report it. 0.60

Quickly give me recorded log10 MIC for `CNCCNc1c(C(=O)Nc2ccc(C(=O)O)cc2)c(=O)[nH]c2c(NC)cc(F)cc12.O=CO` 0.90

Quote log10 MIC reported for `CNc1cc(F)cc2cc(C(=O)Nc3ccc(C(=O)O)cc3CN(CC(=O)O)C3CCCCC3)c(=O)[nH]c12` please. -0.92

Specify measured log10 MIC for `CNc1cc(F)cc2cc(C(=O)Nc3ccc(C(=O)NCCN4CCOCC4)cc3)c(=O)[nH]c12` . -1.22

Give log10 MIC for `CNc1cc(F)cc2c(O)c(C(=O)Nc3ccc(C(=O)NS(=O)(=O)N(C)C)cc3CN3CCCCC3)c(=O)[nH]c12` -1.22

Using the record for `CNc1cc(F)cc2c(NCC3(N)CCC3)c(C(=O)Nc3ccc(C(=O)O)cc3)c(=O)[nH]c12.O=CO` , state its measured log10 MIC. -0.60

Supply reported log10 MIC belonging to this compound: `CNc1cc(F)cc2cc(C(=O)Nc3ccc(C(=O)O)cc3CN(CCN)C3CCCCC3)c(=O)[nH]c12.O=C(O)C(F)(F)F` 1.20

Complete the entry with log10 MIC for `CNc1cc(F)cc2c(NCCCN)c(C(=O)Nc3ccc(C(=O)O)cc3)c(=O)[nH]c12.O=CO` 0.30

Give log10 MIC for the following compound: `CNc1cc(F)cc2c(NCCN3CCOCC3)c(C(=O)Nc3ccc(C(=O)O)cc3)c(=O)[nH]c12.O=CO` -0.92

State its log10 MIC: `CNc1cc(F)cc2cc(C(=O)Nc3ccc(C(=O)O)cc3CNC3CCCCC3)c(=O)[nH]c12.O=C(O)C(F)(F)F` -0.30

Data origin: ChEMBL document CHEMBL4699558
